Tested on: mu opiate receptor (MOR)
METHOD: MOR agonist activity using [35S]GTPγS binding assay in striatal membranes
Type: biochemical
REPORTED_CONDITIONS: Series C-2; 0.1 μM compound, relative to DAMGO
MEASUREMENT_LABEL: % DAMGO (0.1 μM) (%)
# number only, unit % dropped from output

[[record]]
molecule = "COc1ccc(S(=O)(=O)N2CCC3(CC2)NCCO3)cc1 [Compound C0026]"
test_result = 107.7

[[record]]
molecule = "CC(=O)c1ccc(S(=O)(=O)N2CC(CN(C)C)OC23CCN(C)CC3)cc1 (stereo not shown) [Compound C0108M]"
test_result = 108.7

[[record]]
molecule = "CC(=O)c1ccc(S(=O)(=O)N2C(Cc3c[nH]cn3)C(=O)NC23CCNCC3)cc1 (stereo not shown) [Compound C0119M]"
test_result = 71.9


## Task I have this molecule here, CCN1CCC2(CC1)OCCN2S(=O)(=O)c1ccc(C(C)=O)cc1 [Compound C0094M] , and I need its recorded % DAMGO (0.1 μM).
## Result 100.2

## Task Can you share its % DAMGO (0.1 μM)? I mean this molecule: C=CCN1CCC2(CC1)OCCN2S(=O)(=O)c1ccc(C(C)=O)cc1 [Compound C0096M]
## Result 105.9

## Task If you can, please state the reported % DAMGO (0.1 μM) value of Cc1ccc(S(=O)(=O)N2CCOC23CCN(CC2CC2)CC3)cc1 [Compound C0134M] .
## Result 94.6

## Task GET /values?readout=% DAMGO (0.1 μM)&item= CC(=O)c1ccc(S(=O)(=O)N2CC(=O)NC23CCNCC3)cc1 [Compound C0086M]
## Result 117.5

----------
Catalogue of % DAMGO (0.1 μM) values
System: mu opiate receptor (MOR)
METHOD: MOR agonist activity using [35S]GTPγS binding assay in striatal membranes
Type: biochemical
REPORTED_CONDITIONS: Series C-1; 0.1 μM compound, relative to DAMGO
Enter your answer as a number in %; do not include the unit.

Answered examples (5):
[[record]]
molecule = "O=S(=O)(c1ccc(Br)cc1Br)N1CCC2(CC1)OCCN2S(=O)(=O)c1ccc(Br)cc1Br"
measured_on = "mu opiate receptor (MOR)"
test_result = 96.2

[[record]]
molecule = "CC(=O)c1ccc(S(=O)(=O)N2CCC3(CC2)OCCN3S(=O)(=O)c2ccc(C(C)=O)cc2)cc1"
measured_on = "mu opiate receptor (MOR)"
test_result = 126.8

[[record]]
molecule = "N#Cc1ccccc1S(=O)(=O)N1CCC2(CC1)OCCN2S(=O)(=O)c1ccccc1C#N"
measured_on = "mu opiate receptor (MOR)"
test_result = 72.1

[[record]]
molecule = "O=S(=O)(c1ccc(Br)cc1)N1CCC2(CC1)OCCN2S(=O)(=O)c1ccc(Br)cc1"
measured_on = "mu opiate receptor (MOR)"
test_result = 122.6

[[record]]
molecule = "COc1ccc(S(=O)(=O)N2CCCC3(C2)OCCN3S(=O)(=O)c2ccc(OC)cc2)cc1 (stereo not shown) [Compound C0145M]"
measured_on = "mu opiate receptor (MOR)"
test_result = 112.2


## Task Would you kindly share the measured % DAMGO (0.1 μM) for COc1ccc(S(=O)(=O)N2CCC3(CC2)OCCN3S(=O)(=O)c2ccc(OC)c(OC)c2)cc1OC ?
## Result 73.5

## Task Which value of % DAMGO (0.1 μM) has been reported for CC(=O)c1ccc(S(=O)(=O)N2CCC3(CC2)OCC(CCCCN(C)C)N3S(=O)(=O)c2ccc(C(C)=O)cc2)cc1 (stereo not shown) in the records?
## Result 112.1
